assay_name: yeast display, Sf9 membrane polyspecificity reagent, FACS + sequencing; frameworks hold sequencing errors
metric: polyreactivity (PSR sort gate)

Known results for sequences:
- QVQLVETGGGLFQAGGSLRLSCAASGFSFGRYAMGWYRQAPGKERELVAAISRGGSSTYYADSVKGRFTISRDTAKNTVYLQMNSLKPEDTAVYYCNKVIIWARFDYWGQGTQVTVSS: high polyreactivity
- QVQLVESGGGLVQAGGRLRLSCAASGSIFNSYDMGWYRQAPGKERELVAAINSGGSTYYADSVKGRFTISRDNAKNTDYFQMNSLKPEDTAVYYCAARVVIRYPYTKGYYYWGQGTQVTVSS: high polyreactivity
- QVQLQESGGGMVQAGGSLRLSRATSGTISATKGMCRYRQAPGKERELVAGINYGGNTNYADNVKGRFTISRDNAKNTVYLQMNSLKPGDTAVYYCAAEPRGVTDLGYWGQGTQVTVSS: low polyreactivity
- QVQLVESGGGLVQAGGSLRLSCAASGRIFPYYTMGWYRQAPGKERELVATITTGGSTNYADSVKGRFTISRDNAENTVYLQMNSLKPEDTAVYYCNNDGVVVGRFTGPQEYDYWGQGTQVTVSS: low polyreactivity
- QVQLVESGGGLVQAGGSLRLSCAASGFTFWTYAMGWYRQAPGKERELVAAIDSGGSTYYADSVKGRFTISRDNAKNTVYLQMNSLKPEDTAVYYCNAGPSVTSGYDYDYWGQGTQVTVSS: low polyreactivity

// for each sequence in input: emit polyreactivity (PSR sort gate)
1. QVQLVESGGGLVQAGGSLRLSCAASGNIFSTYAIGWTRQAPGKERELVASISENGGSTYYADSVKGRFTISRDNAKNTVYLQMNSLKPDDTAVYYCAKGQLYSLFFQHDAPYRYGYWGQGTQVTVSS
2. QVQLVESGGGLVQAGGSLRLSCAASGSIFRVYAMGWYRQAPGKERELVAVITWTGGITYYADSVKGRFTISRDNAKNTVYLQMNSLKPEDTAVYYCNADLLTFAIKAPTGFYYWGQGTQVTVSS
3. QVQLVESGGGLVQAGGSLRLSCAASGRILKSYAMGWCRHAPGKERELVAAIRSGGSTYYADSVKGRFTISRDNAKNTVYLQMYSLKPEDTAVYYCNRVTRTWKVNYHYWGQGTQVTVSS
4. QVQLVESGGGLVQAGGSLRLSCAASGLIFPSYVMGWYRLAPGKERELVAGITIGDRTYYADSVKGRFTISRDNAKNTVYLQMNSLKPEDTAVYYCAAVYTYAGRRFGYWGQGTQVTVSS
5. QVQLVESGGGLVQAGGSLRLSCAASGRIFTLYAMGWYRQAPGTERELVAAITYTGANTYYADSVKGRFTISRDNAKNTVYLQMNSLKPEDTAVYYCAASGYYYDYWGQGTQVTVSS
6. QVQLVESGGGLVQAGGSLRLSCAASGGTSQGNAMGWYRQAPGKERELVAAISWSGGTTYYADSVKGRFTISRDNAKNTVYLQMNSLKPEDTAVYYCAAYRYAGRYVPYGDYDYWGQGTQVTVSS
7. QVQLVESGGGLVQAGGSLRLSCAASGITFYFNAMGWYRQAPGKEREMVAAISWPGGSTYYADSVKGRFTISRDNAKNTVYLQMNRLKPEDTAVYYCAAEAYFELSGGGLEYGYDYWGQGTQVTVSS
8. QVQLVETGVGLVQAGGSLRLSCAASGLTFPNYDMGWYRQAPGKEMELVAAISSSGGSTYYADSVKGRFTISRDNAKNTVYLQMNSLKPEDTAVYYCATEWSYYNYGYDYWGQGTQVTVSS

1. low polyreactivity
2. high polyreactivity
3. high polyreactivity
4. high polyreactivity
5. high polyreactivity
6. low polyreactivity
7. high polyreactivity
8. low polyreactivity

The measurements presented in this section are drawn from the nanobody polyreactivity screen of Harvey et al. (2022).
